# Tested on: M14 melanoma
# TEST PROTOCOL: NCI-60 one-dose screen, 48 h (100 = growth as untreated, 0 = no growth, -100 = all killed)
# CONDITION SET: 10 µM unless noted
This is part of a sample that, as a whole, favours compounds with a hit. Of some 83,000 tested, about 20% had one in any assay.
We use 50% as the dividing line for growth: on or above the line is Condition met, below is Condition not met.

The following compounds have reported results that may help.
Cc1cc(Nc2nc(N[C@@H](C)c3ncc(F)cn3)ncc2Cl)n[nH]1 = Condition met
CCNCCNc1cc(-c2ccc(Cl)c(Cl)c2)c(C#N)c2nc3ccccc3n12 = Condition not met
CCc1nc2cc(F)c(/C=C/C(=O)NO)cc2c(=O)n1CCc1ccccc1 = Condition not met

Can `FC(F)c1nc2ccccc2n1-c1nc(N2CCOCC2)nc(N2CCOCC2)n1` be said to have growth at or above 50%?
Condition not met

Dear colleague, could you confirm whether `CCc1cc2c(cc1N1CCC(N3CCOCC3)CC1)C(C)(C)c1[nH]c3cc(C#N)ccc3c1C2=O` has growth at or above 50%?
Condition not met

I'd appreciate it if you could say whether `N#Cc1c(-c2ccc(C(F)(F)F)cc2)cc(NCC2CCS(=O)(=O)CC2)n2c1nc1ccccc12` has growth at least equal to 50%.
Condition met

====

# Tested on: OVCAR-8 ovarian
# TEST PROTOCOL: NCI-60 one-dose screen, 48 h (100 = growth as untreated, 0 = no growth, -100 = all killed)
# CONDITION SET: 10 µM unless noted
This is part of a sample that, as a whole, favours compounds with a hit. Of some 83,000 tested, about 20% had one in any assay.
Tick met if growth is 40% or greater. Tick not met if growth is less than 40%.

Cc1cc(Nc2cc(N3CCN(C)CC3)nc(Sc3ccc(NC(=O)C4CC4)cc3)n2)n[nH]1 = not met
CNC(=O)c1cnc(C)nc1-c1cc(C(C)(C)C)c(O)c(C(C)(C)C)c1 = met
C/C(=C(/c1ccc(Cl)cc1)c1ccc(OCCN2CCCC2)cc1)c1ccccc1 = met
Cn1ncc(Cl)c1-c1cc(C(=O)N[C@H](CN)Cc2ccc(F)c(F)c2)oc1Cl = not met
COc1ccc(C2OC(c3cc(-c4cc5ccccc5o4)nn3-c3ccccc3)=NN2C(C)=O)cc1 (configuration not stated) = met
Cc1cnc(NC(=O)Nc2cc(Br)c(C)cc2OC[C@@H]2CNCCO2)cn1 = not met
N#Cc1c(C(F)(F)F)cc(Nc2ccc3nc(NCCN4CCCC4)oc3c2)n2c1nc1ccccc12 = met
CS(=O)(=O)N1CCN(Cc2cc3nc(-c4cccc5[nH]ncc45)nc(N4CCOCC4)c3s2)CC1 = not met
COc1cnc2c(c1)C(=O)c1c-2n(CCCn2ccnc2)c(=O)c2cc(Cl)ccc12 = not met
Cc1cn(-c2cc(NC(=O)c3ccc(C)c(Nc4nccc(-c5cccnc5)n4)c3)cc(C(F)(F)F)c2)cn1 = met

Hi team, for `CCCCn1c(C)nc2ccc(Nc3nc(N4CCN(C)CC4)nc4nc[nH]c34)cc21` , is the recorded growth at or above 40%?
met

Confirm if growth reported for the compound `CN1CCN(c2ccc(C(=O)Nc3n[nH]c4ccc(Cc5cc(F)cc(F)c5)cc34)c(NC3CCOCC3)c2)CC1` is 40% or above.
not met

Given the entry `Cn1ccnc1C(=O)/C=C/c1ccc(CC(=O)Nc2ccc(C(F)(F)F)cc2)cc1` , answer whether its growth meets or surpasses 40%.
not met

Decide: is the reported value of growth for `Cc1cccc(NC(=O)[C@@H]2c3ccccc3C(=O)N(c3ccc(Cl)cc3)[C@H]2c2ccc(Cl)cc2)n1` equal to or greater than 40%?
met

Say whether COC(=O)CNC(=O)[C@@H](OC)[C@@H]1Cc2cc3cc(OC4CC(OC5CC(O)C(O)C(C)O5)C(O)C(C)O4)c(C)c(O)c3c(O)c2C(=O)[C@H]1OC1CC(OC2CC(OC3CC(C)(O)C(O)C(C)O3)C(O)C(C)O2)C(O)C(C)O1 (some centres not stated) shows growth of 40% or more.
not met

Say whether `NC1(c2ccc(-c3nc4ccn5c(=O)[nH]nc5c4cc3-c3ccccc3)cc2)CCC1` shows growth of 40% or more.
met

====

# Test system: SK-MEL-5 melanoma
# TEST PROTOCOL: NCI-60 one-dose screen, 48 h
# CONDITION SET: 10 µM unless noted
This is part of a sample that, as a whole, favours compounds with a hit. Of some 83,000 tested, about 20% had one in any assay. Calls of active or inactive are those of the source. The calls were made as follows: active = growth percent below 10; inactive = the rest.
Select the matching outcome among active, inactive

CNS(=O)(=O)Nc1nccc(Cc2c(C)c3ccc(Oc4ncccn4)cc3oc2=O)c1F = inactive
Nc1c2c(c(O)c3c1=C(CO)C=N3)=NCCS2=O (stereo not given) = active

Just curious, what result did `COc1cc(N2CCC(N(C)C)CC2)ccc1Nc1ncc(Cl)c(Nc2ccccc2P(C)(C)=O)n1` get here?
inactive

Which outcome did this test record for the compound `Nc1c(Cl)cccc1[N+](=O)[O-]` ?
inactive

Called result for CCC1(/C=N/NC(N)=S)NC(=O)NC1=O (stereo not given)
inactive

Could you please tell me the result logged for `Cc1c(Cn2c(C)nc3c(C(=O)O)cc(N4CCOCC4)cc32)cccc1C(F)(F)F` in this assay?
inactive

====

# System: IGROV1 ovarian
# TEST PROTOCOL: NCI-60 one-dose screen, 48 h (100 = growth as untreated, 0 = no growth, -100 = all killed)
# CONDITION SET: 10 µM unless noted
The panel holds about 83,000 compounds, 20% with a hit somewhere; the sample as a whole holds those more often.
Threshold 20%. growth below it: Condition met. growth at it or above: Condition not met.

The examples below pair each entry with its known result.
C=CCn1c(=O)c2cnc(Nc3ccc(N4CCN(C)CC4)cc3)nc2n1-c1cccc(C(C)(C)O)n1 = Condition met
CNc1ncc2cc(-c3cc(NC(=O)NCCC(C)(C)C)c(F)cc3C)c(C)nc2n1 = Condition met
COc1cc2ncnc(Nc3cccc(Cl)c3F)c2cc1OC(=O)N1CCN(C)C[C@H]1C = Condition met
COc1ccc(C(=O)c2cc(OC)c(OC)c(OC)c2)cc1/C=C/C(=O)c1ccc(F)cc1 = Condition not met
COc1ccc2c(CCCC(c3ccccc3)c3ccccc3)c3[n+](cc2c1OC)CCc1cc2c(cc1-3)OCO2 = Condition met
CN1CCN(CCCOc2cccc3nc(Nc4ccc(Cl)c(C(F)(F)F)c4)ccc23)CC1 = Condition not met
CCOC(=O)C1=C(C)N=C2Sc3cccc(OC)c3N2[C@H]1c1ccccn1 = Condition not met
Cc1ccsc1C(NC(=O)c1ccccc1)c1cc(Cl)c2cccnc2c1O (centres undefined) = Condition met

Criterion: growth strictly below 20%. Is it met by `Cn1ccnc1C(=O)/C=C/c1ccc(CC(=O)Nc2ccc(Br)cc2)cc1` ?
Condition met

====

Known growth of a selection of compounds
# Tested on: PC-3 prostate
# TEST PROTOCOL: NCI-60 one-dose screen, 48 h (100 = growth as untreated, 0 = no growth, -100 = all killed)
# CONDITION SET: 10 µM unless noted
Compounds without any hit were thinned out: in the full panel of roughly 83,000, 20% have a hit.
Note: unit % is implicit; provide only the numeric part.

Reference set (2 entries):
CCN(CC)c1cc2oc3cc(N)cc(=N)c-3nc2cc1C = 39.2
CC/C(=C(\c1ccc(OCCN2CCCCCCC2)cc1)c1ccc(OC(=O)C2CCCCC2)cc1)c1ccc(Cl)cc1 = 91.4

Please respond with reported growth (system PC-3 prostate) for `COc1cccc(Nc2ncnn3ccc(CN4CC[C@@H](N)[C@H](O)C4)c23)c1` .
56.3

// fetch growth for `CCN(CC)CCNc1ccc(N=Nc2cnc3ccccc3c2)c2ccccc12` ; system: PC-3 prostate
-83.8

Look up PC-3 prostate data: growth of `CCc1cnn2c(NCc3ccc[n+]([O-])c3)cc(N3CCCC[C@H]3CCO)nc12` , then report it.
-20.5

Please respond with reported growth (system PC-3 prostate) for `Ic1ccccc1-c1ccccc1` .
99.9

====

# Test system: ACHN renal
# TEST PROTOCOL: NCI-60 one-dose screen, 48 h (100 = growth as untreated, 0 = no growth, -100 = all killed)
# CONDITION SET: 10 µM unless noted
This is part of a sample that, as a whole, favours compounds with a hit. Of some 83,000 tested, about 20% had one in any assay.
The entries below are paired with their reported growth.
All answers are understood in %, so give the number only.

Some entries whose results are on file:
COc1ccc(CCCc2c3[n+](cc4c(OC)c(OC)ccc24)CCc2cc4c(cc2-3)OCO4)cc1 = 96.2
COC(=O)[C@]12CC[C@@H](C)[C@H](C)[C@@H]1C1=CC[C@@H]3[C@@]4(C)C(C=O)=C[C@@](C)(COS(C)(=O)=O)C4=CC[C@@]3(C)[C@]1(C)CC2 = -82.8
COc1cc(N2CCC(N(C)C)CC2)ccc1Nc1ncc(Cl)c(Nc2ccccc2P(C)(C)=O)n1 = 1.69
C[N+](C)(CCOC(c1ccccc1)c1ccccc1)CC(=O)OCc1ccccc1 = 111
CN1CCN(c2ccc(C(=O)Nc3n[nH]c4ccc(Cc5cc(F)cc(F)c5)cc34)c(NC3CCOCC3)c2)CC1 = -7.72
N#CC(C#N)=NO = 98.4
c1cc(OCCN2CCCCC2)cc(-c2n[nH]c3ccc(-c4ncn[nH]4)cc23)c1 = 62.7
CCN1CCN(Cc2ccc(NC(=O)Nc3nc(-c4cc(OC)c(OC)c(OC)c4)cs3)cc2C(F)(F)F)CC1 = 20.8
COCC(=O)NC/C=C/c1ccc2ncnc(Nc3ccc(Oc4ccc(C)nc4)c(C)c3)c2c1 = 16.1
CC1(O)CCC(Nc2cc(-c3ccc(C(F)(F)F)cc3)c(C#N)c3nc4ccccc4n23)CC1 (stereo unspecified) = 59.8

Indicate the recorded growth value for this compound: `Cc1ccc(NC(=O)c2ccc(CN3CCN(C)CC3)cc2)cc1Nc1nc(-c2cccnc2)cs1`
48.3

Find the measured growth of `C#Cc1cccc(Nc2ncnc3cc4c(cc23)OCCOCCOCCO4)c1` and report it.
16.3

Every entry's value here was drawn from PubChem BioAssay (NCI).
